# assay-target: receptor 5.24 (Carassius auratus, UniProt Q9PW88)
# Construct: The receptor 5.24 full length cDNA detects 1-2 bands in genomic DNA blots; expressed in transfected cells; host or cells: HEK 293 cells expressing SV40 large T antigen (293-TSA)
# Sequence (Q9PW88 25-877): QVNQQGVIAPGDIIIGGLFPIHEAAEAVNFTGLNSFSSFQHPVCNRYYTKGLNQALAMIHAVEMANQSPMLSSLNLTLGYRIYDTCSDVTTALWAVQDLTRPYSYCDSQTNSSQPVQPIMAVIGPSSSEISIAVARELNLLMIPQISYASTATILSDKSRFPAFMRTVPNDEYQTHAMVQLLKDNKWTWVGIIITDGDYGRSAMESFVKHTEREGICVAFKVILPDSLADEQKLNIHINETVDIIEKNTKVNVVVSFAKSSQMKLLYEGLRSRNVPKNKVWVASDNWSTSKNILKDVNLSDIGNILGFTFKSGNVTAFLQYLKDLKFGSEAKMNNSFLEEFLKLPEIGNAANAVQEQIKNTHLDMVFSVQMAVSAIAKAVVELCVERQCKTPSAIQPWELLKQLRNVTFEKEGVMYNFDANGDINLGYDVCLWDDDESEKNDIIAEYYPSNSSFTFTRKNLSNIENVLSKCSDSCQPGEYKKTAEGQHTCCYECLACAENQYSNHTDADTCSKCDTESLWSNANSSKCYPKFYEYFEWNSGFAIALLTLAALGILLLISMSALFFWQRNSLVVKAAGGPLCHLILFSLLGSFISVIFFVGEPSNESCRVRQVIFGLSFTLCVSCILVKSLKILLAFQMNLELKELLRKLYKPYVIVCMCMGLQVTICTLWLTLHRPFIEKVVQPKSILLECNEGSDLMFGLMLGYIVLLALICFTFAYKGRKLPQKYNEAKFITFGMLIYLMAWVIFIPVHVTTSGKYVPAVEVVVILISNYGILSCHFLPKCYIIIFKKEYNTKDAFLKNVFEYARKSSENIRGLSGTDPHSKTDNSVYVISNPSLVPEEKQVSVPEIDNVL
# assay-protocol: biochemical
# Assay type: binding
Hi there, I'd appreciate the recorded Ki for every entry that follows.

{"molecule": "N[C@@H](Cc1ccc(O)cc1)C(=O)O", "assay-target": "receptor 5.24 (Carassius auratus, UniProt Q9PW88)", "measured-value": "16 µM"}
{"molecule": "N[C@@H](Cc1c[nH]cn1)C(=O)O", "assay-target": "receptor 5.24 (Carassius auratus, UniProt Q9PW88)", "measured-value": "13 µM"}
{"molecule": "N=C(N)NCCCCN", "assay-target": "receptor 5.24 (Carassius auratus, UniProt Q9PW88)", "measured-value": "> 1000 µM"}

Field: Ki. Fill in for each record below.
1. N=C(N)NCCC[C@H](N)C(=O)O
2. NCCCC(=O)O
3. N=C(N)NCCCC[C@H](N)C(=O)O

A.
1: 0.08 µM; 2: > 1000 µM; 3: 1.63 µM

Field: Ki. Fill in for each record below.
1. N[C@@H](CC(=O)O)C(=O)O [L-Aspartate]
2. NCCCC[C@H](N)C(=O)O

A.
["27 µM", "0.09 µM"]
